# TARGET SYSTEM: recombinant CYP142A1 (Mycobacterium tuberculosis)
# Sequence (P9WPL5 whole entry): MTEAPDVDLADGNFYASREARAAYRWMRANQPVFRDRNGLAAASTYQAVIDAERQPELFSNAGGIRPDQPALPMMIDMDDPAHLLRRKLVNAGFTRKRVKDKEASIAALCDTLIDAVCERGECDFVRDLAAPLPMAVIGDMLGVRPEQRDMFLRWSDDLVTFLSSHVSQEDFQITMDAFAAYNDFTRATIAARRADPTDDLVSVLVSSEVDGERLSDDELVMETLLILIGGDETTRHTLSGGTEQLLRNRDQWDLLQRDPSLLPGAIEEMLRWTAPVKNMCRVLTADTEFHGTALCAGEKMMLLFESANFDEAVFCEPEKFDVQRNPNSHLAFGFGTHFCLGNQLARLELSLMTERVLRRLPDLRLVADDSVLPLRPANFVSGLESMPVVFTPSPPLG
# RUN PARAMETERS: pH 7.4
Structures can show the parent of a compound that is named as a salt.
ENDPOINT: Kd (µM)
The figure you give is taken to be in µM; do not add the unit.

Req: Using the record for CC(C)CCC[C@@H](C)[C@H]1CC[C@H]2[C@@H]3CC=C4C[C@@H](OS(=O)(=O)O)CC[C@]4(C)[C@H]3CC[C@]12C [Cholesteryl sulfate] , report its Kd.
Resp: 27
